- test.system: T1, human His6-GITR (human, UniProt Q9Y5U5 26-162)
- T1 construct: His6-tagged recombinant protein; also called hGITR-His; human GITR-His
- T1 sequence: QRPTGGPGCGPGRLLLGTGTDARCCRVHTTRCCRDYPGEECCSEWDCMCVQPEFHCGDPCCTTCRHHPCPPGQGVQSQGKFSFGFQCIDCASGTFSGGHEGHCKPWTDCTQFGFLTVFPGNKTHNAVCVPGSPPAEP
- assay.protocol: ELISA, scFv periplasmic extract on coated His6-GITR
hGITR-His/BKG: recorded values
Please state the figure in fold over background; there is no need to write the unit.

Example binders with recorded hGITR-His/BKG:
binder | hGITR-His/BKG (fold over background)
GITR-Mab-44 scFv (scFv, V domains shown, scFv in periplasmic extract, V5 tag) VH: QVQLVQSGAEVKKPGASVKVSCKASGYTFTSHDIDWVRQAPGQGLEWMGWINPSGDSTSYAQKFQGRVTMTRDTSTSTVYMELSSLRSEDTAVYYCARYYGGNSYAFDIWGQGTMVTVSS VL: DIQMTQSPSSLSASVGDRVTITCRASESISPWVAWYQQKPGKAPKLLIYAASTLQSGVPSRFSGSGSGTDFTLTISSLQPEDFATYYCQQGTSTPYTFGQGTKLEIK | 12.4
GITR-Mab-12 scFv (scFv, V domains shown, scFv in periplasmic extract, V5 tag) VH: QVQLVQSGAEVKKPGASVKVSCKASGYTFTSYAINWVRQAPGQGLEWMGILSPSGGGTSYAPKFQGRVTMTRDTSTSTVYMELSSLRSEDTAVYYCARGPWYFDLWGRGTLVTVSS VL: DIQMTQSPSSLSASVGDRVTITCRASQGISNSLAWYQQKPGKAPKLLIYAASSLQSGVPSRFSGSGSGTDFTLTISSLQPEDFATYYCQQSYSTPFTFGPGTKVDIK | 37.8
GITR-Mab-18 scFv (scFv, V domains shown, scFv in periplasmic extract, V5 tag) VH: EVQLLESGGGLVKPGGSLRLSCAASGFTFSSYWMSWVRQAPGKGLEWVSGISWNGGTVGYADSVKGRFTISRDDSKNTLYLQMNSLKTEDTAVYYCAKLGIAVKSHWYFDLWGRGTLVTVSS VL: DIQMTQSPSSLSASVGDRVTITCRASESISTWLAWYQQKPGKAPKLLIYAASSLQSGVPSRFSGSGSGTDFTLTISSLQPEDFATYYCQQSYTLPLTFGGGTKLEIK | 17.9
GITR-Mab-27 scFv (scFv, V domains shown, scFv in periplasmic extract, V5 tag) VH: QVQLVQSGAEVKKPGASVKVSCKASGYTFTSYDINWVRQAPGQGLEWIGWMNTNSGDTGYAQKFQGRVTMTRDTSTSTVYMELSSLRSEDTAVYYCARQAYSSSWYWYGWFDPWGQGTLVTVSS VL: DIQMTQSPSSLSASVGDRVTITCQASHDIDNYLNWYQQKPGKAPKLLIYAASNLQSGVPSRFSGSGSGTDFTLTISSLQPEDFATYYCQQANSFPLTFGPGTKVDIK | 24.6
GITR-Mab-41 scFv (scFv, V domains shown, scFv in periplasmic extract, V5 tag) VH: QVQLVQSGAEVKKPGASVKVSCKASGGSFSDYAVSWVRQAPGQGLEWMGWMNPNSGNTGYAQKFQGRVTMTRDTSTSTVYMELSSLRSEDTAVYYCARELVRDGYNFALDYWGQGTLVTVSS VL: DIQMTQSPSSLSASVGDRVTITCRASQDIRNDLAWYQQKPGKAPKLLIYAASSLQSGVPSRFSGSGSGTDFTLTISSLQPEDFATYYCQQSFSTFYTFGQGTKLEIK | 9.9
GITR-Mab-20 scFv (scFv, V domains shown, scFv in periplasmic extract, V5 tag) VH: QVQLVQSGAEVKKPGASVKVSCKASGGTFSNYAISWVRQAPGQGLEWMGVINPRGGSTTYAQKFQGRVTMTRDTSTSTVYMELSSLRSEDTAVYYCARDYSIPYYGMDVWGQGTTVTVSS VL: DIQMTQSPSSLSASVGDRVTITCRASQSISTYLNWYQQKPGKAPKLLIYDASNLETGVPSRFSGSGSGTDFTLTISSLQPEDFATYYCQQSYSTPLTFGGGTKVEIK | 24.7
GITR-Mab-35 scFv (scFv, V domains shown, scFv in periplasmic extract, V5 tag) VH: QVQLVQSGAEVKKPGASVKVSCKASGYTFTNYYMHWVRQAPGQGLEWMGLITPSGGRTKYAQKFQGRVTMTRDTSTSTVYMELSSLRSEDTAVYYCAREMEYSSSWYWFDPWGQGTLVTVSS VL: DIQMTQSPSSLSASVGDRVTITCQASQGISSYLNWYQQKPGKAPKLLIYAASTLQSGVPSRFSGSGSGTDFTLTISSLQPEDFATYYCQQSYSTPLTFGGGTKVEIK | 25.3
GITR-Mab-7 scFv (scFv, V domains shown, scFv in periplasmic extract, V5 tag) VH: QVQLVQSGAEVKKPGASVKVSCKASGGTSSTYAVTWVRQAPGQGLEWMGVINPNDGSTTYAQNFQGRVTMTRDTSTSTVYMELSSLRSEDTAVYYCARWTPLFGVVIPDYYYYGMDVWGQGTLVTVSS VL: DIQMTQSPSSLSASVGDRVTITCQASQDISNYLNWYQQKPGKAPKLLIYAASSLQSGVPSRFSGSGSGTDFTLTISSLQPEDFATYYCQQSYSTPPTFGQGTRLEIK | 16.4
GITR-Mab-9 scFv (scFv, V domains shown, scFv in periplasmic extract, V5 tag) VH: QVQLVQSGAEVKKPGASVKVSCKASGHTFTSQYMHWVRQAPGQGLEWVGVINPNDGSTSYAQKFQGRVTMTRDTSTSTVYMELSSLRSEDTAVYYCARDGAYYYDSSGYYRSSNFDYWGQGTLVTVSS VL: DIQMTQSPSSLSASVGDRVTITCQASQDIGNYLNWYQQKPGKAPKLLIYGASNLETGVPSRFSGSGSGTDFTLTISSLQPEDFATYYCQQGYSFPLTFGQGTKVEIK | 12.8

// moving on: another record for hGITR-His/BKG
Query GITR-Mab-26 scFv (scFv, V domains shown, scFv in periplasmic extract, V5 tag) VH: QVQLVQSGAEVKKPGASVKVSCKASGYTFTSYGISWVRQAPGQGLEWMGWMNPNNGNTVYAQKFQGRVTMTRDTSTSTVYMELSSLRSEDTAVYYCAKDSDWYGAFDIWGQGTMVTVSS VL: DIQMTQSPSSLSASVGDRVTITCQASQSISRWLAWYQQKPGKAPKLLIYSASSLQSGVPSRFSGSGSGTDFTLTISSLQPEDFATYYCQQSYSTPWTFGQGTKLEIK yields hGITR-His/BKG of 12.7
